Reported IC50 values for a set of compounds
# Study target: SARS-CoV-1 Mpro (Severe acute respiratory syndrome coronavirus)
# Test method notes: biochemical
Field format: number, assumed µM, no unit text.

Worked cases, IC50 given:
> print(dat)
                                    compound  observable  unit.abbrev  recorded.result
 1  Cc1ccc2[nH]c(C(=O)N3C[C@H]4[C@@H]([C@H]3C(=O)N[C@H](C=O)C[C@@H]3CCNC3=O)C4(C)C)cc2c1        IC50           µM           0.0732
 2  O=C[C@H](C[C@@H]1CCNC1=O)NC(=O)[C@@H]1C[C@@H](Cc2ccccc2Cl)CN1C(=O)c1cc2ccccc2[nH]1        IC50           µM            0.231
 3  CC1(C)[C@@H]2[C@@H](C(=O)N[C@H](C=O)C[C@@H]3CCNC3=O)N(C(=O)c3cc4c(Cl)cccc4[nH]3)C[C@@H]21        IC50           µM           0.0258
 4  C[C@H](C(=O)N1C[C@H]2[C@@H]([C@H]1C(=O)N[C@H](C=O)C[C@@H]1CCNC1=O)C2(C)C)C1CCCCC1        IC50           µM           0.0896
 5  COc1cccc2[nH]c(C(=O)N3CC4(CC4)C[C@H]3C(=O)N[C@H](C=O)C[C@@H]3CCNC3=O)cc12        IC50           µM            0.034
 6  O=C[C@H](C[C@@H]1CCNC1=O)NC(=O)[C@@H]1CC2(CC2)CN1C(=O)c1cc2ccccc2[nH]1        IC50           µM            0.043
 7  CC1(C)[C@@H]2[C@@H](C(=O)N[C@H](C=O)C[C@@H]3CCNC3=O)N(C(=O)CN3CCCCCC3)C[C@@H]21        IC50           µM           0.0746
 8  CC(C)(C)CCC(=O)N1C[C@H]2[C@@H]([C@H]1C(=O)N[C@H](C=O)C[C@@H]1CCNC1=O)C2(C)C        IC50           µM           0.0631
 9  Cn1c(C(=O)N2C[C@H]3[C@@H]([C@H]2C(=O)N[C@H](C=O)C[C@@H]2CCNC2=O)C3(C)C)cc2c(F)cccc21        IC50           µM           0.0925
10  Cc1cc(Cl)cc2cc(C(=O)N3C[C@H]4[C@@H]([C@H]3C(=O)N[C@H](C=O)C[C@@H]3CCNC3=O)C4(C)C)[nH]c12        IC50           µM           0.0488

Reported IC50 of CC1(C)[C@@H]2[C@@H](C(=O)N[C@H](C=O)C[C@@H]3CCCNC3=O)N(C(=O)c3cc4cccc(Cl)c4[nH]3)C[C@@H]21 : 0.024

Reported IC50 of CC(C)(C)NC(=O)N[C@H](C(=O)N1C[C@H]2[C@@H]([C@H]1C(=O)N[C@@H](C[C@@H]1CCNC1=O)C(=O)C(N)=O)C2(C)C)C(C)(C)C : 0.0469

Reported IC50 of CC1CCC(CC(=O)N2C[C@H]3[C@@H]([C@H]2C(=O)N[C@H](C=O)C[C@@H]2CCNC2=O)C3(C)C)CC1 (stereo partly shown) : 0.0326

Sourced from patent US20260355212A1
